The reported measurements were obtained from patent EP4206196A1.

Reported pIC50 values are given for each entry in this list.
Tested on: STAT1/3 through TYK2/JAK1
experimental.protocol: IFNa induced STAT phosphorylation in HEK293 cells (SIE-bla reporter gene)
Type: cell-based
measurement.conditions: Homo sapiens, HEK293; HEK293T-sie-bla cells, IFNa at EC80, 4 hours; read-out: Inhibition of IFNa induced STAT phosphorylation HEK293 cells IC50
pIC50: −log10 of the molar value.

Recorded results for 3 molecules are shown here.
molecule: Cc1cc(Nc2cc(Nc3ncc(-c4cc(C(F)(F)F)nn4C)cc3N(C)S(C)(=O)=O)ncn2)nc(C)n1 [Example 87]
measurement.kind: pIC50
measured.value: < 6.00

molecule: Cc1cc(C)c(N(C)S(C)(=O)=O)c(Nc2cc(Nc3cc(C)ncn3)ncn2)c1 [Example 100]
measurement.kind: pIC50
measured.value: < 6.00

molecule: Cc1cc(Nc2cc(Nc3ncccc3C(C)(C)O)ncn2)nc(C)n1 [Example 172]
measurement.kind: pIC50
measured.value: 6.00 to 7.00

Here is another molecule to look at.
(Q) Give its pIC50 value. Item: Cc1cc(Nc2cc(Nc3ccc(-c4nc(C)nn4C)cc3N(C)S(C)(=O)=O)ncn2)nc(C)n1 [Example 99]
(A) 7.00 to 8.00
